# experiment notes: Genotoxicity in DNA (unknown origin) incubated for 24 hrs in dark condition by methyl green displacement assay
The following compounds are shown together with reported DC50 values.

structure string	DC50
Cc1ccc(-c2cc3nc(NC(C)(C)C)[nH]c(=O)c3s2)cc1	> 25 mM
COc1cccc2c1C(=O)c1c(O)c3c(c(O)c1C2=O)C[C@@](O)(C(C)=O)C[C@@H]3O[C@H]1C[C@H](N)[C@H](O)[C@H](C)O1	0.001 mM
Cc1ccc(-c2cc3nc(NC(C)C)[nH]c(=O)c3s2)cc1	> 25 mM
CC(C)(C)Nc1nc2cc(-c3ccc(Cl)cc3)sc2c(=O)[nH]1	> 25 mM
